# Study System: bovine serum albumin (BSA) (Bos taurus, UniProt P02769)
# Construct: gene ALB; native plasma protein, commercial BSA fraction V (Merck), mature single chain of 583 residues, no further purification
# Sequence (P02769 25-607): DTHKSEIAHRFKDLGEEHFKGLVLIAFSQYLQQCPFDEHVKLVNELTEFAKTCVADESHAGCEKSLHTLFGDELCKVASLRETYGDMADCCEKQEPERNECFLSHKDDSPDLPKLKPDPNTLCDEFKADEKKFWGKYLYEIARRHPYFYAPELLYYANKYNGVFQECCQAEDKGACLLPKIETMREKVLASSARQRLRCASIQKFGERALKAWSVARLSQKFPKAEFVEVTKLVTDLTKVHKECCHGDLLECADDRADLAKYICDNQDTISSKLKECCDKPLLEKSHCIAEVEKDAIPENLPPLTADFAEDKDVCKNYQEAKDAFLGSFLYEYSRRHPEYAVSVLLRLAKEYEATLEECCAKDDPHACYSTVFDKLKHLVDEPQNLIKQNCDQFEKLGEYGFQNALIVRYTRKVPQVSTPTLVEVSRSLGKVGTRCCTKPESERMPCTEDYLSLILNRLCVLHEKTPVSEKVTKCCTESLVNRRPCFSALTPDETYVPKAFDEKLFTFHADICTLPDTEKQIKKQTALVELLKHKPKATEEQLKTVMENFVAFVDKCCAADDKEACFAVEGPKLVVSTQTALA
# Protocol Details: Trp fluorescence quenching
# Format: binding
# Run Conditions: pH 7.4, room temperature, BSA 1.5 μM, double-log
Property: Kb × 10^4 (M^-1)

| Line Notation | Property | Test Result |
| --- | --- | --- |
| Cc1ccc(C(C)C)c(OCc2nc(-c3ccc4ccccc4c3)cs2)c1 | Kb × 10^4 (M^-1) | 8.51 × 10^4 M^-1 |
| Cc1ccc(C(C)C)c(OCC(=NNc2nc(-c3ccc(Cl)cc3)cs2)c2ccccc2)c1 | Kb × 10^4 (M^-1) | 18.02 × 10^4 M^-1 |
| Cc1ccc(C(C)C)c(OCC(=NNc2nc(-c3ccc4ccccc4c3)cs2)c2ccccc2)c1 | Kb × 10^4 (M^-1) | 9.14 × 10^4 M^-1 |
| Cc1ccc(C(C)C)c(OCc2nc(-c3ccc(Br)cc3)cs2)c1 | Kb × 10^4 (M^-1) | 2.61 × 10^4 M^-1 |
| COc1ccc(-c2csc(NN=C(COc3cc(C)ccc3C(C)C)c3ccccc3)n2)cc1 | Kb × 10^4 (M^-1) | 5.64 × 10^4 M^-1 |
| Cc1ccc(C(C)C)c(OCC(=NNc2nc(-c3ccc(Br)cc3)cs2)c2ccccc2)c1 | Kb × 10^4 (M^-1) | 1.85 × 10^4 M^-1 |
| COc1ccc(-c2csc(COc3cc(C)ccc3C(C)C)n2)cc1 | Kb × 10^4 (M^-1) | 6.60 × 10^4 M^-1 |
| Cc1ccc(C(C)C)c(OCc2nc(-c3ccc(Cl)cc3)cs2)c1 | Kb × 10^4 (M^-1) | 6.98 × 10^4 M^-1 |
